Tested on: P. falciparum stage V gametocytes
Design: BacTiter-Glo ATP luminescence viability of purified stage V gametocytes in 384-well plates, per cent inhibition versus DMSO
Settings: 48 h, 5 µM; inhibitor
Hit rate of the full screen: of about 13,000 compounds, about 3,200 (25%) showed an effect of 50% or more. This is one part of the list.
Parameter: % Inhibition. Scope: all listed entries.
Reply numerically in %, unit not repeated.

Here are 7 molecules together with their reported answers.
MOLECULE	% Inhibition / %
COC(=O)CCCOc1cc(Cc2cnc(N)nc2N)cc(OC)c1OC	8.428
O=C(Nc1cc(F)cc(F)c1)N1CCOC(CCN2CCC3(CCc4ccccc43)CC2)(c2ccc(Cl)c(Cl)c2)C1 (centres unmarked)	-8.718
COc1ccc(-c2cc(C(=O)Nc3ccc(CCCN(C)Cc4ccc(OC)c(OC)c4)cc3)c3ccccc3n2)cc1	47.44
O=C(Nc1cc(=O)[nH]c2nc(-c3ccccc3)nn12)C1CCCCC1	2.661
Cc1ccc(N)cc1-c1nc(NC2CC(C)(C)NC(C)(C)C2)nc2c1ccc(=O)n2-c1c(F)cccc1F	57.86
CNC(=O)Cc1ccc(C(=O)Nc2cccc(-c3csc(-c4nc5ccccc5[nH]4)c3)c2)cc1	-10.74
Cc1ccc(NC(=O)Nc2ccccc2F)cc1-c1ccc(C(=O)Nc2ccncc2)cc1	-10.32

Continue with the molecule presented below.
Lab note: Cc1c(Oc2ccc(-n3ccnc3)cc2)ncnc1N1CCC2(CC1)CNCc1ccccc12 gave % Inhibition of 6.86

meta.source: paper PMC4552634
